Target: CYP3A4 (Homo sapiens, UniProt P08684)
Construct: assayed in human liver microsomes (0.02 mg/mL) with midazolam (15 μM) as a substrate; from tissue; host or cells: human liver microsomes
Assay: Mechanism based inhibition of CYP3A4 assay (MBI 3A4)
Assay type: in vitro ADME
Conditions: 25 uM, hydroxy-midazolam formation after 30 min preincubation relative to 0 min
Note to self: values exactly at 60% are 1.0. So MBI 3A4 at or above 60% is 1.0, below is 0.0.

C[C@H]1CN(C)CCCN1c1nccc(-c2noc([C@@]3(C)CCCc4sc(N)c(C#N)c43)n2)n1    0.0

Would you say `C[C@H]1CN(C)CCN1c1nccc(-c2cc([C@@]3(C)CCCc4sc(N)c(C#N)c43)on2)n1` shows MBI 3A4 at minimum 60%?
1.0

Would you say `CC(C)N1CCCN(c2nccc(-c3noc([C@@]4(C)CCCc5sc(N)c(C#N)c54)n3)n2)[C@@H](C)C1` shows MBI 3A4 at minimum 60%?
0.0

Would you say `C[C@H]1CN(C)CCN1c1cccc(-c2noc([C@@]3(C)CCCc4sc(N)c(C#N)c43)n2)n1` shows MBI 3A4 at minimum 60%?
1.0

Would you say `C[C@H](Oc1nccc(-c2noc([C@@]3(C)CCCc4sc(N)c(C#N)c43)n2)n1)[C@@H]1CCCN1C` shows MBI 3A4 at minimum 60%?
1.0

Would you say `C[C@H]1CNCCN1c1nccc(-c2noc([C@@]3(C)CCCc4sc(N)c(C#N)c43)n2)n1` shows MBI 3A4 at minimum 60%?
1.0

Would you say `C[C@H]1CN(C)CCN1c1nccc(-c2noc([C@@]3(C)CCCc4sc(N)c(C#N)c43)n2)n1` shows MBI 3A4 at minimum 60%?
0.0

* * *

Target: KRAS G12C Ba/F3 cells (Homo sapiens, UniProt P01116, G12C, cells depend on it)
Sequence (P01116 whole entry G12C): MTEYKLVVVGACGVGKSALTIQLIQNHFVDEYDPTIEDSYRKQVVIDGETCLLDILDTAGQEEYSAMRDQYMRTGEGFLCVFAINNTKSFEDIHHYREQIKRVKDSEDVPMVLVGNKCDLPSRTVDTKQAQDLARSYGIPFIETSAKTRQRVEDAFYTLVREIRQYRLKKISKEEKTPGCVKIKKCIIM
Assay: Ba/F3 proliferation assay, KRAS G12C
Type: cell-based
Conditions: 72 h, AlamarBlue, read-out: KRAS G12C Ba/F3 IC50
recorded-endpoint: GI50

# annotated cases, reported GI50 shown
C[C@H]1CNCCCN1c1nccc(-c2noc([C@@]3(C)CCCc4sc(N)c(C#N)c43)n2)n1    811 nM
C[C@H](Oc1nccc(-c2noc([C@@]3(C)CCCc4sc(N)c(C#N)c43)n2)n1)[C@@H]1CCCN1C    291 nM
COCCCN1CCCN(c2nccc(-c3noc([C@@]4(C)CCCc5sc(N)c(C#N)c54)n3)n2)[C@@H](C)C1    371 nM
C[C@H](Oc1ccnc(-c2cc([C@@]3(C)CCCc4sc(N)c(C#N)c43)no2)n1)[C@@H]1CCCN1C    940 nM
C[C@H](Oc1ccnc(-c2cc([C@@]3(C)CCCc4sc(N)c(C#N)c43)on2)n1)[C@@H]1CCCN1C    105 nM

Need GI50 of `CC(C)N1CCCN(c2nccc(-c3cc([C@@]4(C)CCCc5sc(N)c(C#N)c54)on3)n2)[C@@H](C)C1` , thanks.
95 nM

Need GI50 of `C[C@H]1CN(C)CCN1c1cccc(-c2noc([C@@]3(C)CCCc4sc(N)c(C#N)c43)n2)n1` , thanks.
1270 nM

* * *

Target: KRAS G12V Ba/F3 cells (Homo sapiens, UniProt P01116, G12V, cells depend on it)
Sequence (P01116 whole entry G12V): as the sequence (P01116 whole entry G12C) above, with C12V counted along it
Assay: Ba/F3 proliferation assay, KRAS G12V
Assay type: cell-based
Details: 72 h, AlamarBlue, read-out: KRAS G12V Ba/F3 IC50
Threshold 0.4 µM. GI50 below it: rule met. GI50 at it or above: rule not met.

Some entries whose results are on file:
C[C@H]1CN(C)CCN1c1cccc(-c2noc([C@@]3(C)CCCc4sc(N)c(C#N)c43)n2)n1    rule not met
C[C@H](Oc1ccnc(-c2cc([C@@]3(C)CCCc4sc(N)c(C#N)c43)no2)n1)[C@@H]1CCCN1C    rule not met
C[C@H](Oc1cccc(-c2noc([C@@]3(C)CCCc4sc(N)c(C#N)c43)n2)n1)[C@@H]1CCCN1C    rule not met
C[C@H]1CN(C)CCN1c1nccc(-c2noc([C@@]3(C)CCCc4sc(N)c(C#N)c43)n2)n1    rule not met
C[C@H]1CN(C)CCN1c1nccc(-c2cc([C@@]3(C)CCCc4sc(N)c(C#N)c43)on2)n1    rule not met

Record `CC(C)N1CCCN(c2nccc(-c3noc([C@@]4(C)CCCc5sc(N)c(C#N)c54)n3)n2)[C@@H](C)C1` : is its GI50 strictly below 0.4 µM?
rule met

Record `C[C@H](Oc1nccc(-c2noc([C@@]3(C)CCCc4sc(N)c(C#N)c43)n2)n1)[C@@H]1CCCN1C` : is its GI50 strictly below 0.4 µM?
rule met

* * *

Target: KRAS (G12C) and SOS1 (Homo sapiens, UniProt P01116, C118S/C51S/C80L/G12C)
Construct: KRAS (G12C) 1-169, N-terminal 6His-tag for purification; 6His (N, cleaved yes)
Sequence (P01116 1-169 isoform P01116-2 G12C/C51S/C80L/C118S): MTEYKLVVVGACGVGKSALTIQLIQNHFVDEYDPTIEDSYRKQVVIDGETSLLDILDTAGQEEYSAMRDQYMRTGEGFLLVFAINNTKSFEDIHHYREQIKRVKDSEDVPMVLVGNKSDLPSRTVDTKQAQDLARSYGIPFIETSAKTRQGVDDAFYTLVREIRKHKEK
Test: KRAS::SOS1 AlphaScreen binding assay, KRAS G12C
pIC50: −log10 of the molar value.
Note to self: values exactly at 8 are met. So pIC50 at or above 8 is met, below is not met.

C[C@H]1CN(C)CCN1c1nccc(-c2noc([C@@]3(C)CCCc4sc(N)c(C#N)c43)n2)n1 [Example V-7]    not met

Would you say C[C@H]1CNCCN1c1nccc(-c2noc([C@@]3(C)CCCc4sc(N)c(C#N)c43)n2)n1 [Example V-4] shows pIC50 at minimum 8?
not met

* * *

The entries below are paired with their reported IC50.
Target: KRAS (WT) and SOS1 (Homo sapiens, UniProt P01116, C118S)
Construct: KRAS (WT) 1-169, N-terminal 6His-tag for purification; 6His (N, cleaved yes); TEV cleavage site
Sequence (P01116 1-169 isoform P01116-2 C118S): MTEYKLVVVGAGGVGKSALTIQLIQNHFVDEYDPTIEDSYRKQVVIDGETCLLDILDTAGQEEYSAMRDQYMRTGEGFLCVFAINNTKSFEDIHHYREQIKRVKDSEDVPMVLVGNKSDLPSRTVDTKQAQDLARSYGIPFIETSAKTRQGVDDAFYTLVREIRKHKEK
Assay: KRAS::SOS1 AlphaScreen binding assay, KRAS WT
Write the value in nM as a bare number.

Need IC50 of C[C@H](Oc1cccc(-c2noc([C@@]3(C)CCCc4sc(N)c(C#N)c43)n2)n1)[C@@H]1CCCN1C [Example V-8] , thanks.
28

Need IC50 of C[C@H]1CN(C)CCN1c1cccc(-c2noc([C@@]3(C)CCCc4sc(N)c(C#N)c43)n2)n1 [Example V-1] , thanks.
125

* * *

Target: KRAS G12C Ba/F3 cells (Homo sapiens, UniProt P01116, G12C, cells depend on it)
Test: Ba/F3 proliferation assay, KRAS G12C
Format: cell-based
Conditions: 72 h, AlamarBlue, read-out: KRAS G12C Ba/F3 IC50
The entries below are paired with their reported GI50.
Include the unit right after the number.

C[C@H]1CN(C)CCCN1c1nccc(-c2noc([C@@]3(C)CCCc4sc(N)c(C#N)c43)n2)n1 [Example V-5]    493 nM
C[C@H]1CN(CC2CC2)CCCN1c1nccc(-c2noc([C@@]3(C)CCCc4sc(N)c(C#N)c43)n2)n1 [Example V-3]    409 nM
C[C@H](Oc1cccc(-c2noc([C@@]3(C)CCCc4sc(N)c(C#N)c43)n2)n1)[C@@H]1CCCN1C [Example V-8]    481 nM
CC(C)N1CCCN(c2nccc(-c3noc([C@@]4(C)CCCc5sc(N)c(C#N)c54)n3)n2)[C@@H](C)C1 [Example V-9]    64 nM
C[C@H]1CN(C)CCN1c1nccc(-c2cc([C@@]3(C)CCCc4sc(N)c(C#N)c43)on2)n1 [Example V-27]    1430 nM
C[C@H]1CN(C)CCN1c1nccc(-c2noc([C@@]3(C)CCCc4sc(N)c(C#N)c43)n2)n1 [Example V-7]    1240 nM

Could you now look at the following compound, please?
Need GI50 of C[C@H]1CNCCN1c1nccc(-c2noc([C@@]3(C)CCCc4sc(N)c(C#N)c43)n2)n1 [Example V-4] , thanks.
831 nM

* * *

Test: Solubility measurement (DMSO solution precipitation method)
Type: physicochemical
Conditions: aqueous buffer, kinetic from dmso stock; McIlvaine buffer pH 4.5, 24 h; read-out: solubility pH 4.5
recorded-endpoint: solubility at 24 h

CC(C)N1CCCN(c2nccc(-c3cc([C@@]4(C)CCCc5sc(N)c(C#N)c54)on3)n2)[C@@H](C)C1 [Example V-26]    > 100 µg/mL
C[C@H]1CN(C)CCN1c1cccc(-c2noc([C@@]3(C)CCCc4sc(N)c(C#N)c43)n2)n1 [Example V-1]    > 110 µg/mL
C[C@H]1CN(C)CCCN1c1nccc(-c2noc([C@@]3(C)CCCc4sc(N)c(C#N)c43)n2)n1 [Example V-5]    > 100 µg/mL

Need solubility at 24 h of CC(C)N1CCCN(c2nccc(-c3noc([C@@]4(C)CCCc5sc(N)c(C#N)c54)n3)n2)[C@@H](C)C1 [Example V-9] , thanks.
> 110 µg/mL
